# Experimental Protocol: absolute recovery over vacuum-assisted evaporative concentration; higher = better recovery
# Condition Notes: wastewater effluent; enrichment method: VEC
Reported Property: absolute recovery (%)
# unit: % | format: bare number

What does the record list as absolute recovery for Cc1cc(C2CC2)nc(Nc2ccccc2)n1 ? 86.9

Try this molecule too: [NH3+]CC1(CC(=O)[O-])CCCCC1 99.5

Try this molecule too: CC(C)Nc1nc(N)nc(Cl)n1 102

Try this molecule too: CS(=O)(=O)c1ccc(C(=O)[O-])c(Cl)c1 101

Try this molecule too: CCc1cccc(C)c1N(C(=O)C(=O)[O-])C(C)COC (centres undefined) 110

Try this molecule too: O=c1[nH+]c[n-]c2c1ncn2C1CCC(CO)O1 (centres undefined) 84.9

Try this molecule too: O=S(=O)([O-])c1ccc2ccc(S(=O)(=O)[O-])cc2c1 108

Try this molecule too: CC12CCC(=O)C=C1CCC1C2C(O)CC2(C)C1CCC2(O)C(=O)CO (centres undefined) [Hydrocortison] 102

Try this molecule too: C#CC[N+](C)([O-])C(C)Cc1ccccc1 (centres undefined) [Deprenyl-N-Oxide] 102

Try this molecule too: CCCCc1nc(Cl)c(CO)n1Cc1ccc(-c2ccccc2-c2nn[nH]n2)cc1 99.1

Try this molecule too: Cc1ncc([N+](=O)[O-])n1CCO 102

Try this molecule too: COC(=O)c1cccc(C)c1S(=O)(=O)[N-]C(=O)Nc1nc(OCC(F)(F)F)nc(N(C)C)n1 106

Try this molecule too: CCOP(=O)(OCC)OC(=CCl)c1ccc(Cl)cc1Cl 112

Try this molecule too: CCCC(NOCC)=C1C(=O)CC(C2CCCSC2)CC1=O (centres undefined) 87.3

Try this molecule too: OC(Cc1ccccc1Cl)(Cn1[nH]cnc1=S)C1(Cl)CC1 (centres undefined) 96.6

Try this molecule too: CCOC(=O)OC1=C(c2cc(C)ccc2C)C(=O)NC12CCC(OC)CC2 (centres undefined) 61.7

Try this molecule too: OC(Cc1ccccc1Cl)(Cn1cncn1)C1(Cl)CC1 (centres undefined) 141

Try this molecule too: CC(C)(Oc1ccc(CCNC(=O)c2ccc(Cl)cc2)cc1)C(=O)[O-] 104

Try this molecule too: O=C([O-])Cc1ccccc1Nc1c(Cl)cc(O)cc1Cl [4-Hydroxydiclofenac A] 95.8
